Tested on: BCL2 G101V
Assay: TR-FRET competitive binding assay, BCL2 G101V
Set-up: species or system human
Details: ratio Ki BCL2 G101V / Ki BCL2 WT
Provide the recorded TR_FRET EKI G101V/WT selectivty ratio for the entries that follow.
Give bare numbers.

Consider the reported TR_FRET EKI G101V/WT selectivty ratio for these compounds:
| compound | TR_FRET EKI G101V/WT selectivty ratio |
| --- | --- |
| COc1ncc(N(C(=O)c2cc(-c3cc4c(cc3C(=O)N3Cc5ccccc5C[C@H]3CN3CCCCC3)CN(C(=O)Cc3ccc(OCCN5CCOCC5)cc3F)CC4)n(C)c2C)c2ccc(O)cc2)cc1F [Example 164] | 7.5 |
| Cc1c(C(=O)N(c2ccc(O)cc2)c2cc(C#N)n(C(F)F)c2C)cc(-c2cc3c(cc2C(=O)N2Cc4ccccc4C[C@H]2CN2CCCCC2)CN(C(=O)Cc2ccc(OCCN4CCN(CCF)CC4)cc2F)CC3)n1C [Example 159] | 5.1 |
| Cc1c(N(C(=O)c2cc(-c3cc4c(cc3C(=O)N3Cc5ccccc5C[C@H]3CN3C[C@H]5C[C@H]5C3)CN(C(=O)Cc3ccc(OCCN5CCOCC5)cc3F)CC4)n(C)c2C)c2ccc(O)cc2)cc(C#N)n1C [Example 120] | 5.2 |

Provide TR_FRET EKI G101V/WT selectivty ratio for all items below, preserving their order.
1. Cc1c(N(C(=O)c2cc(-c3cc4c(cc3C(=O)N3Cc5ccccc5C[C@H]3C)CN(C(=O)Cc3ccc(OCCC5CCOCC5)nc3)CC4)n(C)c2C)c2ccc(O)cc2)cc(C#N)n1C [Example 59]
2. Cc1c(C(=O)N(c2ccccc2)c2cnn(C)c2)cc(-c2cc3c(cc2C(=O)N2Cc4ccccc4C[C@H]2C)CN(C(=O)Cc2cccc(N4CC5(CN(C)C5)C4)c2)CC3)n1C [Example 217]

Reply:
1: 4.6; 2: 88.7

----------
Target: BCL2 G101V (Homo sapiens, UniProt P10415, G101V)
Assay: TR-FRET competitive binding assay, BCL2 G101V
Conditions: BCL2 G101V; Ki determined from IC50; read-out: TR_FRET EKI_Bcl2 G101V
Provide the recorded Ki for the entries that follow.

| smiles-repr | test-target | measured |
| --- | --- | --- |
| Cc1c(N(C(=O)c2cc(-c3cc4c(cc3C(=O)N3Cc5ccccc5C[C@H]3CN3CCCCC3)CN(C(=O)Cc3ccc(OCCC5CCOCC5)cc3F)CC4)n(C)c2C)c2ccc(O)cc2)cc(C#N)n1C | BCL2 G101V (Homo sapiens, UniProt P10415, G101V) | 0.9 nM |
| Cc1cc(OCCN2CCOCC2)c(F)cc1CC(=O)N1CCc2cc(-c3cc(C(=O)N(c4ccccc4)c4cnn(C)c4)c(C)n3C)c(C(=O)N3Cc4ccccc4C[C@H]3C)cc2C1 | BCL2 G101V (Homo sapiens, UniProt P10415, G101V) | 25.6 nM |

Now look at this one.
Query: Quick one: Ki for `COc1ccc(N(C(=O)c2cc(-c3cc4c(cc3C(=O)N3Cc5ccccc5C[C@H]3CN3CCCCC3)CN(C(=O)Cc3ccc(OCCN5CCOCC5)cc3F)CC4)n(C)c2C)c2ccc(O)cc2)cc1C#N` ?
Reply: 0.3 nM

----------
Provide the recorded TR_FRET EKI G101V/WT selectivty ratio for the entries that follow.
Tested on: BCL2 G101V
Test: TR-FRET competitive binding assay, BCL2 G101V
Parameters: species or system human
Details: ratio Ki BCL2 G101V / Ki BCL2 WT
Numbers only.

| molecule | endpoint | measured |
| --- | --- | --- |
| Cc1c(N(C(=O)c2cc(-c3cc4c(cc3C(=O)N3Cc5ccccc5C[C@H]3CN3CC[C@H](C)C3)CN(C(=O)Cc3ccc(OCCN5CCOCC5)cc3F)CC4)n(C)c2C)c2ccc(O)cc2)cc(C#N)n1C [Example 157] | TR_FRET EKI G101V/WT selectivty ratio | 7.7 |
| Cc1c(N(C(=O)c2cc(-c3cc4c(cc3C(=O)N3Cc5ccccc5C[C@H]3CN(C)C(C)C)CN(C(=O)Cc3ccc(OCCN(C)C5CC5)cc3)CC4)n(C)c2C)c2ccc(O)cc2)cc(C#N)n1C [Example 138] | TR_FRET EKI G101V/WT selectivty ratio | 6.2 |
| Cc1c(C(=O)N(c2ccccc2)c2cnn(C(F)F)c2)cc(-c2cc3c(cc2C(=O)N2Cc4ccccc4C[C@H]2C)CN(C(=O)Cc2ccc(OCCN4CCOCC4)cc2F)CC3)n1C [Example 193] | TR_FRET EKI G101V/WT selectivty ratio | 72.0 |
| COc1ncc(N(C(=O)c2cc(-c3cc4c(cc3C(=O)N3Cc5ccccc5C[C@H]3C)CN(C(=O)Cc3ccc(OCCN5CCOCC5)cc3F)CC4)n(C)c2C)c2ccc(O)cc2)cc1F [Example 111] | TR_FRET EKI G101V/WT selectivty ratio | 5.2 |

Provide TR_FRET EKI G101V/WT selectivty ratio for all items below, preserving their order.
1. Cc1c(N(C(=O)c2cc(-c3cc4c(cc3C(=O)N3Cc5ccccc5C[C@H]3C)CN(C(=O)C3CCN(c5ccccc5)C3=O)CC4)n(C)c2C)c2ccc(O)cc2)cc(C#N)n1C (stereo partly shown) [Example 29]
2. COc1ccc(CC(=O)N2CCc3cc(-c4cc(C(=O)N(c5ccc(O)cc5)c5cc(C#N)n(C)c5C)c(C)n4C)c(C(=O)N4Cc5ccccc5C[C@H]4CN4CCCCC4)cc3C2)c(F)c1 [Example 33]
3. Cc1c(C(=O)N(c2ccccc2)c2cccc(C#N)c2)cc(-c2cc3c(cc2C(=O)N2Cc4ccccc4C[C@H]2C)CN(C(=O)Cc2ccc(OCCN4CCOCC4)cc2)CC3)n1C [Example 218]
4. Cc1c(N(C(=O)c2cc(-c3cc4c(cc3C(=O)N3Cc5ccccc5C[C@H]3CN3CCCCC3)CN(C(=O)Cc3c(F)cc(OCCN5CCOCC5)cc3F)CC4)n(C)c2C)c2ccc(O)cc2)cc(C#N)n1C [Example 97]

Reply:
10.3
3.3
45.3
4.3

Provide TR_FRET EKI G101V/WT selectivty ratio for all items below, preserving their order.
1. Cc1c(N(C(=O)c2cc(-c3cc4c(cc3C(=O)N3Cc5ccccc5C[C@H]3C)CN(C(=O)Cc3ccc(OCCN5CCO[C@H](C)C5)cc3)CC4)n(C)c2C)c2ccc(O)cc2)cc(C#N)n1C [Example 56]
2. Cc1c(C(=O)N(c2ccccc2)c2cc(C#N)n(CCO)c2C)cc(-c2cc3c(cc2C(=O)N2Cc4ccccc4C[C@H]2C)CN(C(=O)Cc2ccccc2)CC3)n1C [Example 4]
3. Cc1c(N(C(=O)c2cc(-c3cc4c(cc3C(=O)N3Cc5ccccc5C[C@H]3C)CN(C(=O)Cc3ccc(OCCN5CCC(F)CC5)cc3)CC4)n(C)c2C)c2ccc(O)cc2)cc(C#N)n1C [Example 53]
4. Cc1c(C(=O)N(c2ccc(O)cc2)c2cc(C#N)n(C(F)F)c2C)cc(-c2cc3c(cc2C(=O)N2Cc4ccccc4C[C@H]2CN2CCCCC2)CN(C(=O)Cc2ccc(OCCN4CCN(C)CC4)cc2F)CC3)n1C [Example 160]

Reply:
[2.8, 30.2, 2.8, 6.3]

Provide TR_FRET EKI G101V/WT selectivty ratio for all items below, preserving their order.
1. COc1ccc(N(C(=O)c2cc(-c3cc4c(cc3C(=O)N3Cc5ccccc5C[C@H]3CN3CCCCC3)CN(C(=O)Cc3ccc(OCCN5CCOCC5)cc3F)CC4)n(C)c2C)c2ccc(O)cc2)cc1C#N [Example 167]
2. Cc1c(N(C(=O)c2cc(-c3cc4c(cc3C(=O)N3Cc5ccccc5C[C@H]3CN3CCCCC3)CN(C(=O)Cc3ccc(OCCN5CCN(CC(F)F)CC5)cc3)CC4)n(C)c2C)c2ccc(O)cc2)cc(C#N)n1C [Example 112]
3. Cc1c(N(C(=O)c2cc(-c3cc4c(cc3C(=O)N3Cc5ccccc5C[C@H]3C)CN(C(=O)Cc3cc(F)c(OCCN5CCOCC5)cc3F)CC4)n(C)c2C)c2ccc(O)cc2)cc(C#N)n1C [Example 69]
4. Cc1c(N(C(=O)c2cc(-c3cc4c(cc3C(=O)N3Cc5ccccc5C[C@H]3CN3CCCCC3)CN(C(=O)Cc3ccc(OCCC5CCOCC5)cc3F)CC4)n(C)c2C)c2ccc(O)cc2)cc(C#N)n1C [Example 34]

Reply:
[6.5, 5.6, 7.9, 2.6]

Provide TR_FRET EKI G101V/WT selectivty ratio for all items below, preserving their order.
1. Cc1c(C(=O)N(c2ccc(O)cc2)c2cc(C#N)n(C(F)F)c2C)cc(-c2cc3c(cc2C(=O)N2Cc4ccccc4C[C@H]2CN2CCCC2)CN(C(=O)Cc2ccc(OCCN4CCOCC4)cc2F)CC3)n1C [Example 110]
2. Cc1c(N(C(=O)c2cc(-c3cc4c(cc3C(=O)N3Cc5ccccc5C[C@H]3C)CN(C(=O)Cc3ccc(OCCC5CCOCC5)cc3)CC4)n(C)c2C)c2ccc(O)cc2)cc(C#N)n1C [Example 27]
3. Cc1c(N(C(=O)c2cc(-c3cc4c(cc3C(=O)N3Cc5ccccc5C[C@H]3C)CN(C(=O)Cc3cccc(N5CCOCC5)c3)CC4)n(C)c2C)c2ccc(O)cc2)cc(C#N)n1C [Example 6]

Reply:
[6.3, 1.5, 5.1]
